biological target: human KRAS (antigen of the affinity data in Table 1; variant not stated) (human) (UniProt P01116); test: kinetic affinity measurement (Rmax in RU; method and format not named)
Measurement name: pKd
Quick note: pKd values are minus log10 of concentrations in mol/L.

Field request: pKd | item: 1F4_5C5 (antibody, V domains shown) VH: EVQLVQSGGGVVQPGRSLRLSCAASGFTSKKYGMHWVRQAPGKGLEWVAVISHDGSKKYYADSVKGRFTISRDNSKNTLFVQLSSLRPEDTAVYYCATSLYSSMDLWGQGTTVTVSS VL: QSVVTQPPSVSAAPGQKVTISCSGSNSNIGKNYVSWFQQVPGTAPKLLIFEDNQRPSGIPDRFSASKSGTSASLAISGLQSEDEADYYCAAWDDLGGDHWVFGGGTKLTVL
8.18

Provenance of the data: patent US20190284275A1
